FYI, the data here is from BindingDB's records for doi:10.7270/Q2QR4VH9.

# tested.system: Dual specificity protein phosphatase 1 (Homo sapiens)
# Sequence (P28562 whole entry): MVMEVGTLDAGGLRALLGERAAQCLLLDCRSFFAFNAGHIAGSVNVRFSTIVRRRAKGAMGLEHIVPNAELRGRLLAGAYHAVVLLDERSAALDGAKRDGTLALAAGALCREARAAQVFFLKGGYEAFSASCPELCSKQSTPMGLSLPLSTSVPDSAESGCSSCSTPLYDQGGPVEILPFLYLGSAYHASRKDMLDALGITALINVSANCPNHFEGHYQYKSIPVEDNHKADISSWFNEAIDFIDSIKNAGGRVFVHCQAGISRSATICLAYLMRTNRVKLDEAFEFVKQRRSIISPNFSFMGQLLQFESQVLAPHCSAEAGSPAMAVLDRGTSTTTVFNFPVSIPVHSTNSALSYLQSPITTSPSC
Would you kindly list IC50 for each of these molecules?

Recall the reported IC50 of O=C(OC1CCCCC1)c1ccc2c(c1)C1C=CCC1C(C(=O)O)N2 (stereo not drawn) on Dual specificity protein phosphatase 1 (Homo sapiens) and write it down.
14.5 µM

Recall the reported IC50 of COc1cc(/C=C(/C#N)c2ccc(F)cc2)ccc1OCc1ccc(C(=O)O)o1 on Dual specificity protein phosphatase 1 (Homo sapiens) and write it down.
> 50 µM

Recall the reported IC50 of O=C(Nc1ccccc1)c1ccc2nc(-c3ccco3)c(-c3ccco3)nc2c1 on Dual specificity protein phosphatase 1 (Homo sapiens) and write it down.
35.7 µM

Recall the reported IC50 of O=C1C=C(NCc2ccc(Cl)c(Cl)c2)CC1 on Dual specificity protein phosphatase 1 (Homo sapiens) and write it down.
> 50 µM

Recall the reported IC50 of Cc1ccc(/C=C/C2=Cc3c(sc(NC(=O)CSc4nnc(N)[nH]4)c3C#N)C(C)(C)C2)o1 on Dual specificity protein phosphatase 1 (Homo sapiens) and write it down.
17.8 µM

Recall the reported IC50 of O=C1Nc2ccccc2SC(c2ccccc2)C1O (stereo not drawn) on Dual specificity protein phosphatase 1 (Homo sapiens) and write it down.
33.2 µM

Recall the reported IC50 of CCCCCC#CCC#CCC#CCC#CCCCC(=O)O on Dual specificity protein phosphatase 1 (Homo sapiens) and write it down.
12.1 µM

Recall the reported IC50 of Cc1cc(C)n2c(SCC(=O)N3CCN(S(=O)(=O)c4ccc(Cl)cc4)CC3)nnc2n1 on Dual specificity protein phosphatase 1 (Homo sapiens) and write it down.
48.8 µM

Recall the reported IC50 of CC1=C(/C=C/C(C)=C/C=C/C(C)=C/C(=O)O)C(C)(C)CCC1 [ALL-TRANS-RETINOIC ACID] on Dual specificity protein phosphatase 1 (Homo sapiens) and write it down.
42.9 µM

Recall the reported IC50 of Cn1ncnc2c(=O)n(C)c(=O)nc1-2 on Dual specificity protein phosphatase 1 (Homo sapiens) and write it down.
0.743 µM

Recall the reported IC50 of CCOc1ccc2noc3c2c1C(=O)c1ccccc1-3 on Dual specificity protein phosphatase 1 (Homo sapiens) and write it down.
> 50 µM

Recall the reported IC50 of CCCSc1nnc(NC(=O)c2sc3nc(-c4cccs4)ccc3c2N)s1 on Dual specificity protein phosphatase 1 (Homo sapiens) and write it down.
21.8 µM

Recall the reported IC50 of CC(=O)[C@@H]1[C@@H]2C(=O)N(c3ccc(F)c(Cl)c3)C(=O)[C@@H]2C2c3ccccc3C=CN21 (stereo partly drawn) on Dual specificity protein phosphatase 1 (Homo sapiens) and write it down.
> 50 µM

Recall the reported IC50 of CCn1c(SCC(=O)Nc2ccc3c(c2)c2ccccc2n3CC)nnc1-c1ccco1 on Dual specificity protein phosphatase 1 (Homo sapiens) and write it down.
20.3 µM

Recall the reported IC50 of [O-]/[N+](=C/c1ccc(F)cc1)c1ccccc1 on Dual specificity protein phosphatase 1 (Homo sapiens) and write it down.
> 50 µM

Recall the reported IC50 of Nc1c(N2CCCC2)cc(Cl)c2nonc12 on Dual specificity protein phosphatase 1 (Homo sapiens) and write it down.
> 50 µM

Recall the reported IC50 of COCCCn1c(N)c(C(=O)NCCC(C)C)c2nc3ccccc3nc21 on Dual specificity protein phosphatase 1 (Homo sapiens) and write it down.
> 50 µM

Recall the reported IC50 of Cc1nc2cc(-c3cccc(F)c3)nn2c(C)c1CCC(=O)N1CCC2(CC1)OCCO2 on Dual specificity protein phosphatase 1 (Homo sapiens) and write it down.
> 50 µM

Recall the reported IC50 of CCCCNC(=O)c1c(N)n(CCCOC)c2nc3ccccc3nc12 on Dual specificity protein phosphatase 1 (Homo sapiens) and write it down.
47.1 µM

Recall the reported IC50 of Cc1cccc(NC(=O)c2cc(NC(=O)C3CCCCC3C(=O)O)ccc2N2CCCCC2)c1 (stereo not drawn) on Dual specificity protein phosphatase 1 (Homo sapiens) and write it down.
> 50 µM

Recall the reported IC50 of O=C1C=Cc2ccccc2C1=O [1,2-dihydronaphthalene-1,2-dione] on Dual specificity protein phosphatase 1 (Homo sapiens) and write it down.
36.4 µM

Recall the reported IC50 of N#Cc1c(N2CCCC2)nc(N)c2c(N)nc(N3CCCC3)cc12 on Dual specificity protein phosphatase 1 (Homo sapiens) and write it down.
18.8 µM

Recall the reported IC50 of O=C(NC1(O)C(=O)c2ccccc2C1=O)c1ccccc1 on Dual specificity protein phosphatase 1 (Homo sapiens) and write it down.
48.2 µM

Recall the reported IC50 of Cc1cc(NC(=O)c2ccc(S(=O)(=O)N3CCCC3)cc2)nc2c1c(=O)oc1ccccc12 on Dual specificity protein phosphatase 1 (Homo sapiens) and write it down.
24.9 µM

Recall the reported IC50 of CCCCn1c(NC(=O)c2ccccc2)c(C#N)c2nc3ccccc3nc21 on Dual specificity protein phosphatase 1 (Homo sapiens) and write it down.
30 µM

Recall the reported IC50 of CC(C)(C)N1C(=O)Cc2c1nc(N)c1c(N)nc(N3CCCCC3CO)c(C#N)c21 (stereo not drawn) on Dual specificity protein phosphatase 1 (Homo sapiens) and write it down.
> 50 µM

Recall the reported IC50 of CCn1nc(-c2cccs2)nc2c(=O)n(C)c(=O)nc1-2 on Dual specificity protein phosphatase 1 (Homo sapiens) and write it down.
1.24 µM

Recall the reported IC50 of CCn1nc(-c2ccccc2)nc2c(=O)n(C)c(=O)nc1-2 on Dual specificity protein phosphatase 1 (Homo sapiens) and write it down.
1.19 µM
